# assayComment: small-molecule binders of probe aNOTCH2, primary screen, biochemical, small-molecule microarray, 635/667 nm fluorescence (AID 1121);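 further: score merges feature fluorescence read at 667 nm with its signal to noise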
# conditionParameters: higher = more signal
Please mark label 1 if the recorded composite z-score is equal to or greater than -0.1, and label 0 if it falls below.

**Q:** Could you tell me if the measured composite z-score of O=C1OCCC/C=C\[C@H]2OC34C=CCN(CCN5CCOCC5)C(=O)[C@H]3N(CCCCCO)C(=O)[C@@H]4C12 (stereo partly drawn) reaches -0.1 or more?
**A:** label 0

**Q:** Please tell me: is the molecule `C=C[C@H](OC)[C@@H](OC(=O)Nc1ccc(SC)cc1)c1ccc(OC)c(O)c1` at or over -0.1 in terms of composite z-score?
**A:** label 0

**Q:** Determine whether this molecule has composite z-score no lower than -0.1: CCOC(=O)C1=CCC(c2cccc3ccccc23)N(S(=O)(=O)c2ccc(C)cc2)C1 (stereo not drawn)
**A:** label 1

**Q:** Answer whether composite z-score of `CCOC(=O)C1=CC[C@@H](c2ccc(-c3ccc(OCc4ccccc4)cc3)c(OC)c2)N(S(=O)(=O)c2ccc(C)cc2)[C@H]1c1ccccc1` is greater than or equal to -0.1.
**A:** label 0

**Q:** Given `CCCNC(=O)[C@@H]1c2ccccc2C(=O)N(C2CCCCC2)[C@H]1c1ccc(CO)cc1` , state whether its composite z-score is at least -0.1.
**A:** label 0

**Q:** Does CCC1=C2CN(Cc3ccccc3Br)[C@@H]([C@@H](O)Cc3ccccc3)C2C=CCC1 (stereo partly drawn) have a reported composite z-score of at least -0.1?
**A:** label 0

**Q:** Decide: composite z-score of `CCOC(=O)C1=CC[C@@H](c2ccccc2)N(S(=O)(=O)c2ccc(C)cc2)[C@H]1C` >= -0.1?
**A:** label 1

----------
// reported z-score for each item listed
# assayComment: basal RPMI8226 viability, no added stimulus, profiling panel, cell-based, calcein-AM fluorescence, 48 h, PK04 Diversity Set (AID 1166);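 further: cells grown under basal conditions without added stimulus; test concentration not given here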
# conditionParameters: RPMI8226 myeloma viability, higher = more signal
Respond with the number and no other words.

Worked examples follow.
compound	recordedMeasurement
Cc1ccc(N2C(=O)c3ccccc3[C@](C)(C(=O)NCC(C)C)[C@@H]2c2ccc(CO)cc2)nc1	0.256
Cc1cc(C)c(C(O)C2C=CC3C(=O)N(C)C(=O)C3N2N2CCCCC2)c(C)c1 (stereo unspecified)	-1.11
O=C(CS)NCCCCCNC(=O)[C@H]1C[C@H]2C(=O)N3CCC[C@H]3C(=O)N2[C@H]1c1ccc(O)cc1	-0.0858

Kindly consider the entry below.
**Q:** Dear colleague, I am looking for the recorded z-score of the following compound: `NC(=O)NCC#Cc1ccc2c(c1)[C@]1(C(=O)N2)[C@H](C(=O)N2CCCCCCC2)[C@H]2C(=O)O[C@H](c3ccccc3)[C@H](c3ccccc3)N2[C@@H]1c1ccccc1OCCO`
**A:** -0.583

----------
# measurementTarget: NADPH oxidase 5 (Homo sapiens) (UniProt Q96PH1)
# Sequence (Q96PH1 whole entry, looked up): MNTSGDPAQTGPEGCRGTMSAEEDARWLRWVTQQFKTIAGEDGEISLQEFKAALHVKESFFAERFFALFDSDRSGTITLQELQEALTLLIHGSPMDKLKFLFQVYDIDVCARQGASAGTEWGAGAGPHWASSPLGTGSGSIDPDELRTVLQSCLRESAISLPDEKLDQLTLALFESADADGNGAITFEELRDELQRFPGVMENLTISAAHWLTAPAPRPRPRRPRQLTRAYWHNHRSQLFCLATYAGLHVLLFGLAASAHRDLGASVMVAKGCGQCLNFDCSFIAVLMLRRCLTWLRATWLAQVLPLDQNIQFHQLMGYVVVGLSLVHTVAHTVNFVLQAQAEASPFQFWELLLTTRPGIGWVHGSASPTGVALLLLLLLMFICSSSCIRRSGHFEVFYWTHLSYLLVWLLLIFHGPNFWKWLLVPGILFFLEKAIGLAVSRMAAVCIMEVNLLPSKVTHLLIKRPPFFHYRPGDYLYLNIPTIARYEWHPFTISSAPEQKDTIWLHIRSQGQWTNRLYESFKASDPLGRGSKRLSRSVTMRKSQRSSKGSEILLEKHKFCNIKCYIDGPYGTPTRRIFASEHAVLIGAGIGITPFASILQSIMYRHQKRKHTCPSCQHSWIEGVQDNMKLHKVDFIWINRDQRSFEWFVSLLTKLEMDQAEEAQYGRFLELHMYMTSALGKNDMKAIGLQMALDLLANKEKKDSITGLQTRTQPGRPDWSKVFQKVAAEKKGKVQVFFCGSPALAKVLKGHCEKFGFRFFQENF
# assayComment: NOX5-dependent H2O2 signal modulators, primary screen, NOX inhibitor project, cell-based, HEK293-NOX5, Amplex Red fluorescence (AID 1161)
# conditionParameters: HEK293-NOX5, ionomycin, 45 min, higher = more signal
Short version: z-score at least -0.3 is true, less is false.

Solved entries:
compound	classLabel
CCCC=C(CCC)[C@@H](NS(=O)(=O)c1ccc(C(F)(F)F)cc1)c1ccc(-c2ccccc2)cc1	true
C=C(C(=O)CC[C@H](OC(=O)c1ccccc1-c1ccccc1C(=O)O)c1ccc(CO)o1)C(C)C	false
COc1ccc([Si](C)(C)[C@H]2[C@H](CC(=O)N3Cc4ccccc4C[C@H]3CO)O[C@@]3(C(=O)N(Cc4cccc(N5CCOC5=O)c4)c4ccccc43)[C@@H]2C)cc1	false
C=C(COC)C(=O)CC[C@H](OC(=O)c1ccccc1-c1ccccc1C(=O)O)c1cccc(OCCO)c1	false
CC[C@H]1C2=C3C(CC[C@H]4C(OC)OC[C@](C)([C@@H]34)N(C(=O)OC(C)(C)C)C2)C(CO)C1CO (stereo partly specified)	false
CN(C)CCCC[C@@H]1NC(=O)[C@@H]2C[C@H](C(=O)O)[C@H](c3ccc(O)cc3)N2C1=O	false

**Q:** Textbook exercise: given the entry `CO[C@H]1COC(=O)CC=C[C@@H](C)COC(=O)[C@@H](C)NC(=O)CC=C[C@@H]1C` , state whether its z-score is greater than or equal to -0.3.
**A:** true

**Q:** Does `C=CCc1cccc([C@H]2N[C@H](C(=O)O)CC[C@@H]2C)c1` have a reported z-score of at least -0.3?
**A:** true

**Q:** Decide: z-score of CN1C2C=C(c3ccc(CO)cc3)C(C3C(=O)N(C(N)=O)C(=O)C32)C1c1cccs1 (stereo unspecified) >= -0.3?
**A:** true
